# Tested on: LXRa:RXRa (NR concentration 270 nM, RXRa partner concentration 90 nM)
# assay.summary: PBM binding z-score (relative to random genomic background probes); higher = stronger binding; sequences stand for … in GC…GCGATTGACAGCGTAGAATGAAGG
Please go through the items and note down their PBM binding z-score.
Give bare numbers.

Provide each entry's PBM binding z-score from the list below.
1. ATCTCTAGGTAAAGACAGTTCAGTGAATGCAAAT
2. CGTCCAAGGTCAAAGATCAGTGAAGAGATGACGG

Outgoing:
2.43
5.44

----------
# System: LXRa homodimer (NR concentration 270 nM)
# assay.summary: PBM binding z-score (relative to random genomic background probes); higher = stronger binding; sequences stand for … in GC…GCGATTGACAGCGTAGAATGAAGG
measurement.type: PBM binding z-score
Answers are plain numbers.

Worked examples, 3 sequences total:
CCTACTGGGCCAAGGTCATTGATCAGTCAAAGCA; 1.06
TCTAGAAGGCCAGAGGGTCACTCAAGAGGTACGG; -0.432
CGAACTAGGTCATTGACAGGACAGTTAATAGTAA; 0.774

Working through the 5 sequences below one at a time, give PBM binding z-score for each.
1. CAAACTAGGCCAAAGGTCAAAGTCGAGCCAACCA
2. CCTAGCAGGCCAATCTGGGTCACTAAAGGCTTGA
3. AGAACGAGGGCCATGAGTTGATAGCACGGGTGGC
4. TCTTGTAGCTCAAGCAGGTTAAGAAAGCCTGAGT
5. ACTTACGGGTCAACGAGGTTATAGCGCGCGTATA

Outgoing:
1: 4.2; 2: -0.513; 3: -0.767; 4: -0.662; 5: 0.711

Provide each entry's PBM binding z-score from the list below.
1. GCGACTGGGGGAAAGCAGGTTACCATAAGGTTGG
2. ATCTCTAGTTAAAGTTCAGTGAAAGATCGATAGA
3. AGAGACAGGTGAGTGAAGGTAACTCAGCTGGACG
4. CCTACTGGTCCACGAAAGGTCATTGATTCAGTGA
5. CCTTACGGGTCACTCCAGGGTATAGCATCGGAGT
6. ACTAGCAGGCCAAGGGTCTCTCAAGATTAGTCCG

Outgoing:
-0.178
2.94
-0.174
5.19
0.368
-0.698

For each of the sequences below, note its PBM binding z-score.
1. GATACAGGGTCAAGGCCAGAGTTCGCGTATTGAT
2. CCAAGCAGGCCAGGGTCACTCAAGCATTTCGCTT
3. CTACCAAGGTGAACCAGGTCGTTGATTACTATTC
4. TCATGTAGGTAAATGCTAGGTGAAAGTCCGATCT
5. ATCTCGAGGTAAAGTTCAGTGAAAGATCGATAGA
6. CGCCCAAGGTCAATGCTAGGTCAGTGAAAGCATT

Outgoing:
1: 0.289; 2: -0.279; 3: -0.0698; 4: 0.144; 5: 1.04; 6: 2.46

----------
# System: PPARg:RXRa 90nM:30nM, anti-RXR (NR concentration 90 nM, RXRa partner concentration 30 nM)
# assay.summary: PBM binding z-score (relative to random genomic background probes); higher = stronger binding; sequences stand for … in GC…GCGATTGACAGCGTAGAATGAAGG
Decide using PBM binding z-score: a value greater than or equal to 1 is yes (1), a smaller one is no (0).

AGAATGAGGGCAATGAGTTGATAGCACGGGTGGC; no (0)

Incoming: Does the reported PBM binding z-score for `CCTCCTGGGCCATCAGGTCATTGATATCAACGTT` fall at or above the 1 mark?
Outgoing: no (0)

----------
Give measured PBM binding z-score for each item. Keep answers brief.
# Test system: FXR:RXRa (NR concentration 270 nM, RXRa partner concentration 90 nM)
# assay.summary: PBM binding z-score (relative to random genomic background probes); higher = stronger binding; sequences stand for … in GC…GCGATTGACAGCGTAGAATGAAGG

Solved entries:
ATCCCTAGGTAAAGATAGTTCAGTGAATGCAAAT; 0.139
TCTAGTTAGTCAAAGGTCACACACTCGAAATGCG; 5.6
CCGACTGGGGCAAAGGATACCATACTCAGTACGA; -0.424
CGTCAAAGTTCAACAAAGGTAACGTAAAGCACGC; 7.15
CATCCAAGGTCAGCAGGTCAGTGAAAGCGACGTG; 6.25

Batch lookup, PBM binding z-score per entry.
1. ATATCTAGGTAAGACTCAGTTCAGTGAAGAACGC
2. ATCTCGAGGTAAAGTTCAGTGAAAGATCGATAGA
3. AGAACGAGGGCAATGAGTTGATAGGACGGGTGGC
4. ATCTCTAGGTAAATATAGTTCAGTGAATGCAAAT
5. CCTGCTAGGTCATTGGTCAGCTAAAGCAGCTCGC
6. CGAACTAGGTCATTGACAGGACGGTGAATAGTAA

Outgoing:
0.211
1.3
0.234
0.614
4.06
4.57

Incoming: Value lookup for PBM binding z-score; key = `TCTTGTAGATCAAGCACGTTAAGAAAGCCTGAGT`
Outgoing: 0.465

----------
# Tested on: PPARg homodimer (NR concentration 180 nM)
# assay.summary: PBM binding z-score (relative to random genomic background probes); higher = stronger binding; sequences stand for … in GC…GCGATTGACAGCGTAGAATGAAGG
Label 1 (yes) for high-side PBM binding z-score (at or above 1) and 0 (no) for low-side PBM binding z-score (below it).

# example entries with known answers
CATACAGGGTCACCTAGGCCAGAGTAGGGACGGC; 1 (yes)
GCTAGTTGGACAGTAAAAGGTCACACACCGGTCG; 1 (yes)
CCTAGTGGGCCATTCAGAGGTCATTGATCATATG; 1 (yes)
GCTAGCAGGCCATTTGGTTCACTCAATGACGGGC; 0 (no)

Incoming: Given the entry `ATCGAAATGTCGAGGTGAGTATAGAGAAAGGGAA` , answer whether its PBM binding z-score meets or surpasses 1.
Outgoing: 0 (no)

Incoming: Hi, just wondering whether `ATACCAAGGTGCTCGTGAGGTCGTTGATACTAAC` shows PBM binding z-score of 1 or higher.
Outgoing: 0 (no)

Incoming: Entry `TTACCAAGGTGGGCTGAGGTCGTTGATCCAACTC` : is its PBM binding z-score no less than 1?
Outgoing: 0 (no)

Incoming: Could you tell me if the measured PBM binding z-score of `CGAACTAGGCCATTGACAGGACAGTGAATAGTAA` reaches 1 or more?
Outgoing: 0 (no)

----------
# Tested on: RXRa homodimer (NR concentration 180 nM)
# assay.summary: PBM binding z-score (relative to random genomic background probes); higher = stronger binding; sequences stand for … in GC…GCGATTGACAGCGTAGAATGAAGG
measurement.type: PBM binding z-score
Give bare numbers.

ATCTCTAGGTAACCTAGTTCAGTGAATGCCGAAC; 0.722

Would you mind listing PBM binding z-score for each of the following sequences?
1. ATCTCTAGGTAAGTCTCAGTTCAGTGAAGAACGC
2. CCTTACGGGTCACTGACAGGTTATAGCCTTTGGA
3. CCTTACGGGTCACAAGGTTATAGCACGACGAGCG
4. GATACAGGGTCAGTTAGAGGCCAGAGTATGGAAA

Outgoing:
1: 0.0582; 2: 4.83; 3: 6.05; 4: 3.67

Could I get PBM binding z-score for every one of these entries?
1. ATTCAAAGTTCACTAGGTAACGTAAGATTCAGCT
2. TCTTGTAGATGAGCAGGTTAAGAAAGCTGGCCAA
3. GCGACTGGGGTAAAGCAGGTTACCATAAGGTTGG
4. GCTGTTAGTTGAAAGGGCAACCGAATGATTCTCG
5. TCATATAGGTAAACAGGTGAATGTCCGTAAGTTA
6. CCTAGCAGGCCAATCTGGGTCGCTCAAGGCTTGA
7. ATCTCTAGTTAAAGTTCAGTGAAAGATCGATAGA

Outgoing:
1. 3.58
2. 0.00792
3. 1.03
4. 1.23
5. 1.03
6. 0.755
7. 1.22

----------
# System: PXR homodimer (NR concentration 270 nM)
# assay.summary: PBM binding z-score (relative to random genomic background probes); higher = stronger binding; sequences stand for … in GC…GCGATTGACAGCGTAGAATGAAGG
Task for the reader: assign each of the following sequences its reported PBM binding z-score.

Please go through the list and note PBM binding z-score for each sequence.
1. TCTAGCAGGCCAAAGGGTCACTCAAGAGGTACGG
2. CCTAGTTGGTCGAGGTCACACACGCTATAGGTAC
3. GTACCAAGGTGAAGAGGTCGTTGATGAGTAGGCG

Outgoing:
-0.0548
3.73
0.607
